# system: NS3/4A protease gt 3a (Hepatitis C virus genotype 3a, UniProt Q81258)
# assay.details: HCV NS3 protease time-resolved fluorescence (TRF) assay, NS3/4A inhibitory activity (Ki), gt 3a
# condition.notes: genotype 3a NS3/4A; read-out: Enzyme Activity gt 3a Ki
pKi: −log10 of the molar value.
// reported pKi per item

molecule	pKi
C=C[C@@H]1C[C@]1(NC(=O)[C@@H]1C[C@@H]2CN1C(=O)[C@H](C(C)(C)C)NC(=O)O[C@@]1(C)C[C@@H]1CC/C=C/c1cccc3c1CN(C3)C(=O)O2)C(=O)NS(=O)(=O)C1CC1 [Example I-14]	6.95
C=C[C@@H]1C[C@]1(NC(=O)[C@@H]1C[C@@H]2CN1C(=O)[C@H](C1CCCC1)NC(=O)O[C@]1(C)C[C@H]1CC/C=C/Cn1c(nc3cc(C)ccc3c1=O)O2)C(=O)NS(=O)(=O)C1CC1 [Example I-23]	9.00
CC[C@@H]1C[C@]1(NC(=O)[C@@H]1C[C@@H]2CN1C(=O)[C@H](C(C)(C)C)NC(=O)O[C@]1(C)C[C@H]1CCCCCc1cccc3c1CN(C3)C(=O)O2)C(=O)NS(=O)(=O)C1CC1 [Example I-7]	8.06

FYI, the data here is from patent US20130178413A1.
